Tested on: BDF1 mice, P388 leukemia ip, median survival T/C
Assay: NCI In Vivo Anticancer Drug Screen. Data for tumor model P388 Leukemia (intraperitoneal) in B6D2F1 (BDF1) mice
Conditions: endpoint: median survival time; dose: 12.5 mg/kg/injection; schedule: Q01DX009 (ip); vehicle: saline with Tween-80; higher = longer survival
Experimental: The antitumor activity of compounds was measured in mice bearing transplantable tumors. Survival or tumor size were measured and the results are expressed as the measurement made in the treated group (T) divided by the measurement made in the vehicle treated control group (C). The tumor model used in this assay is P388 Leukemia (intraperitoneal) in B6D2F1 (BDF1) mice
Toxic doses and inconclusive results are not listed.
Entries and their T/C values follow.

| compound | T/C |
| --- | --- |
| CSc1nc(SC)c2[nH]cnc2n1 | 91 % of control |
| O=c1nc(Oc2ccccc2)nc2c3ccccc3ccn12 | 118 % of control |
| CC(C)C(C)/C=C\C(C)C1CCC2C3=CCC4CC(O)CCC4(C)C3CCC21C (centres undefined) | 101 % of control |
| COC(=O)N1c2ccccc2C=CC1C#N (centres undefined) | 100 % of control |
| CCOC(=O)C1Cc2c([nH]c(=S)[nH]c2=O)OC1c1ccccc1 (centres undefined) | 100 % of control |
| CCCCCCCS(=O)CCCCCCC | 104 % of control |
| CCOC(=O)CC1NCCC2C1CCC(OC)C2OC (centres undefined) | 95 % of control |
| CCCCCNC(=O)Nc1cccc(Cl)c1C | 109 % of control |
| COc1ccc2c(c1)CCC1=C2C=C[P+]1(C)C | 92 % of control |

###

System: BDF1 mice, P388 leukemia ip, median survival T/C
Test: NCI In Vivo Anticancer Drug Screen. Data for tumor model P388 Leukemia (intraperitoneal) in B6D2F1 (BDF1) mice
Conditions: endpoint: median survival time; dose: 400.0 mg/kg/injection; schedule: Q04DX003 (ip); vehicle: saline sonified
Inconclusive results and toxic doses are left out. The calls were made as follows: active = survival T/C of 150% or more; inactive = T/C below 125% in these data.
Possible outcomes: active, inactive

| compound | systemUnderTest | group |
| --- | --- | --- |
| O=c1[nH]c(=O)n(C2CC(O)C(CO)O2)cc1Br (centres undefined) | BDF1 mice, P388 leukemia ip, median survival T/C | inactive |
| CC1(C)N=C(N)N=C(N)N1c1ccc(OCCOc2ccc(NC(=O)CBr)cc2)cc1 | BDF1 mice, P388 leukemia ip, median survival T/C | active |
| CN(C)c1ccc(/C=C2\C=Cc3ccccc32)cc1F | BDF1 mice, P388 leukemia ip, median survival T/C | inactive |
| CCOC(Cn1ccc(=O)[nH]c1=O)OCC | BDF1 mice, P388 leukemia ip, median survival T/C | inactive |

###

System: BDF1 mice, P388 leukemia ip, median survival T/C
Experiment: NCI In Vivo Anticancer Drug Screen. Data for tumor model P388 Leukemia (intraperitoneal) in B6D2F1 (BDF1) mice
Settings: endpoint: median survival time; dose: 200.0 mg/kg/injection; schedule: Q01DX009 (ip); vehicle: saline with Tween-80
Toxic doses and inconclusive results are not listed. Rule for the calls: active = survival T/C of 150% or more; inactive = T/C below 125% in these data.
Outcomes: active, inactive

| compound | group |
| --- | --- |
| CC(=O)OC1(C)N=NC2(CCCCC2)O1 (stereo unspecified) | inactive |
| CC1(C)CCC2(C)CC=C3OC(=O)CCC3(C)C2C1 (stereo unspecified) | inactive |
| C=CCCc1cc(OC)ccc1C(=O)C(C)C | inactive |
| O=[N+]([O-])c1ccc2c(c1)[nH]c1ccccc12 | inactive |
| CC/C(C)=N/Nc1nncn2c1cc1ccccc12 | inactive |
| c1ccc2c(c1)-c1cccc3cccc-2c13 | inactive |
| CCCCCCC(NC(C)=O)C(C)=O (stereo unspecified) | inactive |
| CCCCC(C)(O)CC (stereo unspecified) | inactive |
| C=CC(=O)NC(Cc1ccccc1)C(=O)O (stereo unspecified) | inactive |
| Cc1ccc(C)c(C(=O)C2CC2)c1 | inactive |
| CCOC(=O)c1cnn(-c2ccccc2)c1N | inactive |
| CN(C)[C@@H]1C(=O)C(C(=O)NCNCCCC(=O)O)=C(O)[C@@]2(O)C(=O)C3=C(O)c4c(O)cccc4[C@@](C)(O)[C@H]3C[C@@H]12 | inactive |
| CC1(C)CC(=O)N/C1=C\C1NC(=O)CC1(C)C (stereo unspecified) | inactive |
| [Cl][Cr]([Cl])[Cl].[NH-]CC[N-]CC[NH-] | inactive |
| COC(=O)C(CSCSC)NC(=O)/C=C/c1ccc(C)cc1 (stereo unspecified) | inactive |
| CCOC(=O)C1C(=O)NC(=O)CC1C (stereo unspecified) | inactive |
| CCCCCCC(=O)/C=C/c1ccc(OC)cc1 | inactive |
| CC1CN1P(=S)(Oc1ccccc1)N1CC1C (stereo unspecified) | active |
| CCSC1(SCC)C(=O)OC2=C(CCCC2)C1N1CCOCC1 (stereo unspecified) | inactive |
| O=C(Nc1cccc(Br)c1)N1c2ccccc2SC12CCCC2 | inactive |
| Sc1ccccc1-n1c(-c2ccccc2)ccc1-c1ccccc1 | inactive |
| CC(C)(O)c1ccccc1S(=O)c1ccc(Cl)cc1 (stereo unspecified) | inactive |
| Cc1cc(N(CCCl)CCCl)ccc1C=Nc1ccccc1C(=O)O | active |
| N#Cc1ccc(/C=N/NC(N)=S)s1 | inactive |
| O=c1[nH]c2cc(Cl)c(Cl)cc2o1 | inactive |
| O=C1/C(=C/c2ccccc2O)SC(=S)N1CCCN1CCOCC1 | inactive |

###

Test system: BDF1 mice, P388 leukemia ip, median survival T/C
Experiment: NCI In Vivo Anticancer Drug Screen. Data for tumor model P388 Leukemia (intraperitoneal) in B6D2F1 (BDF1) mice
Details: endpoint: median survival time; dose: 100.0 mg/kg/injection; schedule: Q04DX003 (ip); vehicle: saline; higher = longer survival
Inconclusive results and toxic doses are left out.

| compound | T/C |
| --- | --- |
| CC(=O)Oc1ccc(OC(C)=O)c2c1CC(C)=C(C)C2 | 109 % of control |
| Cc1c(C)c2ccc(N)cc2[nH]c1=O | 106 % of control |
| Cc1ccc(NCc2cccc3ccccc23)c(C)c1 | 91 % of control |
| C=CC(C)(C)c1cc2cc3c(cc2oc1=O)OC(C(C)(C)OC(C)=O)C3 (centres undefined) | 107 % of control |
| O=C(CCl)NCc1cnccn1 | 94 % of control |
| c1ccc(OP2OCCO2)cc1 | 87 % of control |
| CN(C)NP(=O)(NN(C)C)N(C)C | 113 % of control |
| O=C(O)C1OC(n2cc(F)c(=O)[nH]c2=O)CC1O (centres undefined) | 116 % of control |
| Clc1ncnc2c1ncn2C1CCCO1 (centres undefined) | 104 % of control |
| N#Cc1cnn(C(N)=S)c1N | 100 % of control |
| C[N+](C)(C)CC[N+](C)(C)C | 93 % of control |
| c1ccc2c(c1)Sc1cnccc1N2CC1CO1 (centres undefined) | 104 % of control |
| C1=CC2CCC(C1)C21OCCO1 (centres undefined) | 95 % of control |
| CC1(C)c2ccccc2C(=O)C1Cc1ccccc1 (centres undefined) | 119 % of control |

###

System: BDF1 mice, P388 leukemia ip, median survival T/C
Assay: NCI In Vivo Anticancer Drug Screen. Data for tumor model P388 Leukemia (intraperitoneal) in B6D2F1 (BDF1) mice
Conditions: endpoint: median survival time; dose: 50.0 mg/kg/injection; schedule: Q01DX009 (ip); vehicle: saline
Inconclusive results and toxic doses are left out. How the source made its calls: active means survival T/C of 150% or more; inactive means T/C below 125% in these data.
Classes used: t for active, f for inactive

| molecule | systemUnderTest | group |
| --- | --- | --- |
| CCOC(=O)c1cnc(C)[nH]c1=O | BDF1 mice, P388 leukemia ip, median survival T/C | f |
| CC[N+](C)(C)c1ncnc2nc[nH]c12 | BDF1 mice, P388 leukemia ip, median survival T/C | f |
| Cn1c(O)c(C=N)c(=O)n(C)c1=O | BDF1 mice, P388 leukemia ip, median survival T/C | f |
| CCCCCCNC1=CC(=O)CC(C)(C)C1 | BDF1 mice, P388 leukemia ip, median survival T/C | f |
| Nc1cc(I)c2cccnc2c1O | BDF1 mice, P388 leukemia ip, median survival T/C | f |
| C=CC(=O)NC(C)C(=O)O (stereo unspecified) | BDF1 mice, P388 leukemia ip, median survival T/C | f |
| O=C(O)C(NC1CCCCC1)c1ccccc1 (stereo unspecified) | BDF1 mice, P388 leukemia ip, median survival T/C | f |
| CCC(O)Cc1c[nH]c(=O)[nH]c1=O (stereo unspecified) | BDF1 mice, P388 leukemia ip, median survival T/C | f |
| COc1cc(C(=O)N(C)C)cc(OC)c1OC | BDF1 mice, P388 leukemia ip, median survival T/C | f |
| CCOC(=O)C1CSC2(CCCCC2)N1 (stereo unspecified) | BDF1 mice, P388 leukemia ip, median survival T/C | f |
| C=CCC(CC)(C(=O)O)C(=O)O | BDF1 mice, P388 leukemia ip, median survival T/C | f |
| CC(=O)OC1C=CCC23C(=O)C=CC(=O)C12C(=O)c1ccccc1C3=O (stereo unspecified) | BDF1 mice, P388 leukemia ip, median survival T/C | f |
| C/C(=N/N(C)C)c1ccc(Br)cc1 | BDF1 mice, P388 leukemia ip, median survival T/C | f |
| O=c1[nH]cnc2ccnn12 | BDF1 mice, P388 leukemia ip, median survival T/C | f |
| NC(CSC(c1ccccc1)(c1ccccc1)c1ccc(CO)cc1)C(=O)O (stereo unspecified) | BDF1 mice, P388 leukemia ip, median survival T/C | t |
| O=[N+]([O-])CC(O)c1ccc2ccccc2n1 (stereo unspecified) | BDF1 mice, P388 leukemia ip, median survival T/C | f |
| CSc1nc(N)nc2c1ncn2C1CC(O)C(CO)O1 (stereo unspecified) | BDF1 mice, P388 leukemia ip, median survival T/C | f |
| O=C(O)CC(NC(=O)CP(=O)(O)O)C(=O)O (stereo unspecified) | BDF1 mice, P388 leukemia ip, median survival T/C | f |
| c1ccc2c(c1)CC1CCCCN1C2 (stereo unspecified) | BDF1 mice, P388 leukemia ip, median survival T/C | f |
| CC1CCCCN1CCCO (stereo unspecified) | BDF1 mice, P388 leukemia ip, median survival T/C | f |
| N#Cc1cnc2nc(N)nc(N)c2c1 | BDF1 mice, P388 leukemia ip, median survival T/C | f |
| C=C1C(=O)OC2CC3(C)CC(O)C(O)C(=C)C3CC12 (stereo unspecified) | BDF1 mice, P388 leukemia ip, median survival T/C | f |
| COc1c2ccoc2nc2c(OC)c3c(cc12)OCO3 | BDF1 mice, P388 leukemia ip, median survival T/C | f |
| Nc1ccc(CCCCc2ccc(Cl)cc2Cl)cc1 | BDF1 mice, P388 leukemia ip, median survival T/C | f |
| COc1ccc(/C=C/C2(O)N(C)C(=O)N(C)C(=O)N2C)cc1 | BDF1 mice, P388 leukemia ip, median survival T/C | f |
| CCOP(=O)(OCC)OCCCN(CC)CC | BDF1 mice, P388 leukemia ip, median survival T/C | f |
| CSc1ncncc1N | BDF1 mice, P388 leukemia ip, median survival T/C | f |
| NNC(=O)[C@H]1CC[C@H]1C(=O)NN | BDF1 mice, P388 leukemia ip, median survival T/C | f |
| CC1=C(O)C(O)C2OC2C1=O (stereo unspecified) | BDF1 mice, P388 leukemia ip, median survival T/C | f |
| O=C1C=CC(=O)N1Cc1ccco1 | BDF1 mice, P388 leukemia ip, median survival T/C | f |
| NC(N)=Nc1ccc(C(=O)Nc2ccc([N+](=O)[O-])cc2)cc1 | BDF1 mice, P388 leukemia ip, median survival T/C | f |
| Cc1ncc(O)c(CO)c1O | BDF1 mice, P388 leukemia ip, median survival T/C | f |
| NCCCOc1ccc([N+](=O)[O-])cc1Cl | BDF1 mice, P388 leukemia ip, median survival T/C | f |
| O=S(=O)(Oc1ccccc1)C(F)(F)C(F)(F)C(F)(F)C(F)(F)F | BDF1 mice, P388 leukemia ip, median survival T/C | f |
| CNC(C)Cc1ccccc1OC (stereo unspecified) | BDF1 mice, P388 leukemia ip, median survival T/C | f |
| Nc1ccc(Nc2ccccc2)c(S(=O)(=O)O)c1 | BDF1 mice, P388 leukemia ip, median survival T/C | f |
